test: total protein half-life in vivo (active degradation + dilution); higher = more stable protein; conditions: wild type E. coli NCM3722; growth: N-lim chemostat; doubling time 12 h
Form field: total protein half-life in vivo (one value per entry).
Dear colleague, please return just the value in h, with no unit written.

[[record]]
sequence = "MKRLRNKMTTEELAECLGVAKQTVNRWIREKGWKTEKFPGVKGGRARLILVDTQVCEFIQNTPAFHNTPMLMEAEERIAEYAPGARAPAYRQIINAIDNMTDIEQEKVAQFLSREGIRNFLARLDIDESA"
recorded_number = 4.62


Suppose we examine the sequence MKKYLALALIAPLLISCSTTKKGDTYNEAWVKDTNGFDILMGQFAHNIENIWGFKEVVIAGPKDYVKYTDQYQTRSHINFDDGTITIETIAGTEPAAHLRRAIIKTLLMGDDPSSVDLYSDVDDITISKEPFLYGQVVDNTGQPIRWEGRASNFADYLLKNRLKSRSNGLRIIYSVTINMVPNHLDKRAHKYLGMVRQASRKYGVDESLILAIMQTESSFNPYAVSRSDALGLMQVVQHTAGKDVFRSQGKSGTPSRSFLFDPASNIDTGTAYLAMLNNVYLGGIDNPTSRRYAVITAYNGGAGSVLRVFSNDKIQAANIINTMTPGDVYQTLTTRHPSAESRRYLYKVNTAQKSYRRR [P0C066] ; what total protein half-life in vivo value has been reported? 12.6

---

test: total protein half-life in vivo (active degradation + dilution); higher = more stable protein; conditions: E. coli NCM3722 delta-hslV; growth: N-lim chemostat; doubling time 6 h
Rule: total protein half-life in vivo under 6 h gives criterion not met, otherwise criterion met.

[[record]]
sequence = "MKKIAAISLISIFIMSGCAVHNDETSIGKFGLAYKSNIQRKLDNQYYTEAEASLARGRISGAENIVKNDATHFCVTQGKKMQIVELKTEGVGLHGVARLTFKCGE"
answer_label = "criterion met"

[[record]]
sequence = "MIYIGLPQWSHPKWVRLGITSLEEYARHFNCVEGNTTLYALPKPEVVLRWREQTTDDFRFCFKFPATISHQAALRHCDDLVTEFLTRMSPLAPRIGQYWLQLPATFGPRELPALWHFLDSLPGEFNYGVEVRHPQFFAKGEEEQTLNRGLHQRGVNRVILDSRPVHAARPHSEAIRDAQRKKPKVPVHAVLTATNPLIRFIGSDDMTQNRELFQVWLQKLAQWHQTTTPYLFLHTPDIAQAPELVHTLWEDLRKTLPEIGAVPAIPQQSSLF"
answer_label = "criterion not met"

[[record]]
sequence = "MQDSILTTVVKDIDGEVTTLEKFAGNVLLIVNVASKCGLTPQYEQLENIQKAWVDRGFMVLGFPCNQFLEQEPGSDEEIKTYCTTTWGVTFPMFSKIEVNGEGRHPLYQKLIAAAPTAVAPEESGFYARMVSKGRAPLYPDDILWNFEKFLVGRDGKVIQRFSPDMTPEDPIVMESIKLALAK"
answer_label = "criterion not met"

[[record]]
sequence = "MKVKVLSLLVPALLVAGAANAAEVYNKDGNKLDLYGKVDGLHYFSDNKDVDGDQTYMRLGFKGETQVTDQLTGYGQWEYQIQGNSAENENNSWTRVAFAGLKFQDVGSFDYGRNYGVVYDVTSWTDVLPEFGGDTYGSDNFMQQRGNGFATYRNTDFFGLVDGLNFAVQYQGKNGNPSGEGFTSGVTNNGRDALRQNGDGVGGSITYDYEGFGIGGAISSSKRTDAQNTAAYIGNGDRAETYTGGLKYDANNIYLAAQYTQTYNATRVGSLGWANKAQNFEAVAQYQFDFGLRPSLAYLQSKGKNLGRGYDDEDILKYVDVGATYYFNKNMSTYVDYKINLLDDNQFTRDAGINTDNIVALGLVYQF"
answer_label = "criterion met"


In plain terms: is recorded total protein half-life in vivo at least 6 h for MSAKHPVIAVTGSSGAGTTTTSLAFRKIFAQLNLHAAEVEGDSFHRYTRPEMDMAIRKARDAGRHISYFGPEANDFGLLEQTFIEYGQSGKGKSRKYLHTYDEAVPWNQVPGTFTPWQPLPEPTDVLFYEGLHGGVVTPQHNVAQHVDLLVGVVPIVNLEWIQKLIRDTSERGHSREAVMDSVVRSMEDYINYITPQFSRTHLNFQRVPTVDTSNPFAAKGIPSLDESFVVIHFRNLEGIDFPWLLAMLQGSFISHINTLVVPGGKMGLAMELIMLPLVQRLMEGKKIE [P0AEX5] ? criterion not met

Has MEALGMIETRGLVALIEASDAMVKAARVKLVGVKQIGGGLCTAMVRGDVAACKAATDAGAAAAQRIGELVSVHVIPRPHGDLEEVFPIGLKGDSSNL [P0ABF4] a recorded total protein half-life in vivo greater than or equal to 6 h? criterion not met

Hi, just wondering whether MFTGSIVAIVTPMDEKGNVCRASLKKLIDYHVASGTSAIVSVGTTGESATLNHDEHADVVMMTLDLADGRIPVIAGTGANATAEAISLTQRFNDSGIVGCLTVTPYYNRPSQEGLYQHFKAIAEHTDLPQILYNVPSRTGCDLLPETVGRLAKVKNIIGIKEATGNLTRVNQIKELVSDDFVLLSGDDASALDFMQLGGHGVISVTANVAARDMAQMCKLAAEGHFAEARVINQRLMPLHNKLFVEPNPIPVKWACKELGLVATDTLRLPMTPITDSGRETVRAALKHAGLL [P0A6L2] shows total protein half-life in vivo of 6 h or higher. criterion not met
